tested on: UACC-257 melanoma; test: NCI-60 one-dose screen, 48 h; conditions: 10 µM unless noted
This is part of a sample that, as a whole, favours compounds with a hit. Of some 83,000 tested, about 20% had one in any assay. Calls of active or inactive are those of the source. Rule for the calls: active = growth percent below 10; inactive = the rest.
Labels: yes = active, no = inactive

compound | label
COc1cc(C[C@H]2COc3cc(O)cc(O)c3C2=O)ccc1O | no
Cc1oc(-c2ccc(Cl)cc2)nc1C1=NN(C(=O)c2ccncc2)C(c2ccccc2)C1 (stereo not given) | no
COc1ccc(C(=O)C/C(=C\c2ccc(O)c(OC)c2)C(=O)NN)cc1 | no
COc1ccc2cc(C(=O)N3CCC([C@@H](C)C(=O)NCc4ccc5c(c4)OCO5)CC3)[nH]c2c1 | no
Cc1cccc(N2C(=O)/C(=C/C(Cl)=C/c3ccc([N+](=O)[O-])cc3)SC2=S)c1C | no
CC(O)Cc1c[nH]c(=O)[nH]c1=O (stereo not given) | no
Nc1ccc(-c2ccncc2)cc1NC(=O)N1CCCC1 | no
Fc1cccc(-c2nc(-c3c[nH]c4ncccc34)cs2)c1 | no
COc1cc(-c2ccc(-c3ccc(C(=N)N)cc3)s2)cc(OC)c1OC | no
COc1cc(C=C2C(=O)NC(=S)NC2=O)cc(CN2CCCC2)c1O | no
Cc1cc(O)c(=O)cc2c1C[C@H]1CC(C)(C)/C=C/C[C@]3(C)Oc4cc(=O)c(O)cc(C)c4C[C@H]3C[C@H](O)[C@@]1(C)O2 | yes
CCSc1ccnc(N)n1 | no
COc1ccc(Nc2ncc(C#N)c(NCCCNC(=O)C3CCC3)n2)cc1 | no
c1ccc(Nc2nc3c(s2)CCc2c[nH]cc2-3)nc1 | no
CSc1nc(-c2ccco2)c(C#N)c(=O)n1C | no
N#Cc1c(-c2ccc(Br)cc2)nc2c(N=Nc3ccc(S(N)(=O)=O)cc3)c(N)nn2c1N | no
O=C1C(Cl)=C(Nc2ccccc2)C(=O)c2ccccc21 | yes
N#Cc1c(-c2ccccc2)nc2c(c(-c3ccc(Cl)cc3)nn2-c2ccccc2)c1-c1ccc([N+](=O)[O-])cc1 | no
O=S(=O)(Nc1cc(Sc2nc3ccccc3s2)c(O)c2ccccc12)c1ccc2ccccc2c1 | no
COc1ccc(/C=N/NC(=O)Cn2c(-c3ccc(S(C)(=O)=O)cc3)nc3ccccc32)cc1 | no
CCCCCCCCCCOC(=O)c1nn(C(C)=O)c2cc(C)c(C)cc12 | no
CCN(CC)CCOc1ccc(Nc2ncc3cc(-c4c(Cl)cccc4Cl)c(=O)n(CCOC)c3n2)cc1 | no
Cc1c2cnccc2c(C)c2c1c1cc(CO)ccc1n2C | yes
Nc1c(C(=O)Nc2cccc3ncccc23)sc2nc3c(cc12)CN(Cc1ccccc1)CC3 | no
COc1nc(/C=C\Nc2ccc3c(c2)OCCOCCOCCOCCO3)nc(OC)n1 | no
c1ccc(-c2ccc3c(c2)C2(CCNCC2)CN3)cc1 | no
CCCCC#Cc1c(I)n(C2OC(CO[Si](C)(C)C(C)(C)C)C3OC(C)(C)OC32)c(=O)n(C(=O)c2ccccc2)c1=O (stereo not given) | no
N#Cc1ccccc1-c1ccc(CN2C(=O)S/C(=C\c3ccc(Br)cc3)C2=O)cc1 | no
Cc1cccc(NC(=O)Cn2cc(CN3CCN(c4ccnc5cc(Cl)ccc45)CC3)nn2)c1 | no
CC(C)(C)c1ccc(C(=O)N/N=C/c2ccc(O)cc2O)cc1 | yes

---

system: K-562 leukemia; assay: NCI-60 one-dose screen, 48 h (100 = growth as untreated, 0 = no growth, -100 = all killed); details: 10 µM unless noted
About 83,000 compounds went through this panel and 20% of them were active in at least one assay; those are over-represented in the sample as a whole.
Rule for this label: t means growth is less than 80%; f means growth is at least 80%.

compound | label
COc1cc(/C=N/NC(=O)c2ccc(-n3cc(-c4ccccc4)nn3)cc2)cc(OC)c1OC | t
O=C(C[C@]1(O)C(=O)Nc2ccc(Br)cc21)c1ccco1 | f
COc1ccc(C(c2cc(OC)c(OC)c(OC)c2)N2CCCCC2)cc1 (configuration not stated) | t
O=C(Nc1ccccc1O)c1ccc(CNc2ccnc(C(F)(F)F)c2)cc1 | t
CNC(=O)Nc1ccc(-c2ccc3ncnc(Nc4cccc(Cl)c4)c3c2)cc1 | t
O=S(=O)(Nc1cc(F)cc(F)c1)c1ccc(-c2cnc(C3CC3)o2)cc1 | t
CCCCNC(=O)c1ccc2c(c1)nc(-c1ccccc1)n2C1CCCCC1 | t
COCCn1cc(-c2csc(-c3c[nH]c4ccc(F)cc34)n2)c2cccnc21 | t
Cc1ccc2c(c1)sc1nc(-c3c[nH]c4ccccc34)c(Nc3ccccc3)n12 | f
COc1ccc(-c2cc(-c3cn(-c4cccc(Cl)c4)nc3-c3ccc(OC)cc3)on2)cc1 | f
CC1(C)N=C(N)N=C(N)N1c1ccc(S(=O)(=O)Nc2nccs2)cc1 | f
Cc1ccc(OCCOCCOCCOCCOCCOc2ccc(C)n(O)c2=S)c(=S)n1O | t
N#Cc1ccccc1-c1ccc(CN2C(=O)S/C(=C\c3ccc(Br)cc3)C2=O)cc1 | f
O=c1oc2c(cc1-c1ccccc1)c(=O)[nH]c1ccccc12 | f
Cc1ccc(O)c(NC(=O)c2cccc(Nc3ccnc(C(F)(F)F)c3)c2)c1 | t
CCOC(=O)c1cn2ncnc(Oc3ccc(NC(=O)NC4CC4)c(Cl)c3)c2c1C | t
C=C(C)[C@@H]1CC[C@]2(C)[C@H](C=CC3=C4C[C@@](C)(CO)CC[C@]4(C)CC[C@]32C)[C@@]1(C)CCCN | t
CCN1C(=O)N(c2ccccc2)C2NC(=S)N(/N=C/C=C/c3ccccc3OC)C21 (configuration not stated) | t
Cc1ccc(NC(=O)c2sc3nc(C)c(C(O)c4ccccc4)cc3c2N)cc1 (configuration not stated) | t
CC(=O)c1c(Nc2cccc(F)c2)[nH]c2c(Cl)cc(Cl)c(Cl)c2c1=O | t
COc1cccc(-c2cn3nc(-c4cn(C)c5ccccc45)sc3n2)c1 | t
Cc1nc(N/N=C/c2cn(-c3ccccc3)nc2-c2cc3ccccc3oc2=O)sc1N=Nc1ccccc1 | t
CN(C)c1ccc(CNCCO)cc1 | f
Cc1c2ncccc2nc2[nH]c3ccc(OCCN(C)C)cc3c12 | t
Cc1cc(=O)n(C(=S)Nc2ccc(Cl)cc2)c2cc(O)ccc12 | f
COc1ccc2c(c1)oc1c(C)c3c(c(C)c12)C(=O)N(CCOS(C)(=O)=O)C3=O | f
CN(C)c1ccc(C(=S)c2ccc(N(C)C)cc2)cc1 | t

---

test system: SF-268 CNS; test: NCI-60 one-dose screen, 48 h (100 = growth as untreated, 0 = no growth, -100 = all killed); details: 10 µM unless noted
This is part of a sample that, as a whole, favours compounds with a hit. Of some 83,000 tested, about 20% had one in any assay.

compound | growth, %
C[C@H](c1nc2ccc(C#N)cc2[nH]1)[C@H]1CC[C@H]2[C@@H]3CCC4=CC(=O)CC[C@]4(C)[C@H]3CC[C@]12C | 78.5
Fc1cccc(CNc2c3ccccc3nc3ccccc23)c1 | 62.1
CCN(CC)C(=O)CC1=C(C)/C(=C/c2[nH]c(-c3ccc[nH]3)cc2OC)N=C1C | 21.7
COc1ccc(Cl)cc1Nc1nc(C(F)(F)F)ccc1C(=O)N/N=C/c1ccc([N+](=O)[O-])cc1 | 15.3
C1CCC(N2CN3c4nonc4N4CN(C5CCCCC5)CN5c6nonc6N(C2)C3C45)CC1 (centres undefined) | 96.5
O=C1Nc2ccccc2/C1=N/N1C(=O)CN(CCCl)C1=O | 102
CCN(CC)CCOc1ccc(Nc2ncc3cc(-c4c(Cl)cccc4Cl)c(=O)n(CCOC)c3n2)cc1 | -9.68
COc1ccc(/C=C2\CN(C(=O)C(Cl)Cl)C/C(=C\c3ccc(OC)c(OC)c3)C2=O)cc1OC | 17.8
Clc1ccc(-c2nc(C(Cl)Cl)nc3cc(-c4ccccc4)nn23)cc1 | 41.7

---

tested on: HCT-15 colon; assay: NCI-60 one-dose screen, 48 h; details: 10 µM unless noted
About 83,000 compounds went through this panel and 20% of them were active in at least one assay; those are over-represented in the sample as a whole. The source made the active and inactive calls. Rule for the calls: active = growth percent below 10; inactive = the rest.
Labels: active, inactive

compound | target entity | label
CC(=O)c1sc(-c2ccc(F)cc2)cc1O | HCT-15 colon | inactive
COc1ccc2c(O)c(/C=C3\N=Nc4ncccc43)oc2c1C[C@@H]1CCNC[C@H]1F | HCT-15 colon | active
O=C(C1=Cc2cc3ccccc3n2Cc2cnnn21)c1ccc(F)cc1 | HCT-15 colon | inactive
COc1cc(Cc2cc(OC)c(O)c(OC)c2)cc(OC)c1O | HCT-15 colon | inactive
COC(=O)c1c2c(c[n+]([O-])c1C)C(=O)C=C(NCc1ccccc1)C2=O | HCT-15 colon | active
N=C(N)c1ccc(OCCSCCOc2ccc(C(=N)N)cc2)cc1 | HCT-15 colon | inactive
CCN(CC)CCCC(Cc1ccccc1)Nc1c2ccc(Cl)cc2nc2ccc(OC)cc12 (stereo not given) | HCT-15 colon | active
ClC(Cl)c1nc(-c2ccccc2)n2nc(-c3ccccc3)cc2n1 | HCT-15 colon | active
OC1CSSC1Cn1cnc2c(Nc3ccc(OCc4cccc(F)c4)c(Cl)c3)ncnc21 (stereo not given) | HCT-15 colon | active
COC(=O)c1c2c(c(C)[n+]([O-])c1C)C(=O)C(NCc1ccccc1)=CC2=O | HCT-15 colon | active
O=C(/C=C/c1ccccc1)N(C1CCCCC1)C1CCCCC1 | HCT-15 colon | inactive
O=S(Nc1ccccc1)c1ccc(Cl)cc1 (stereo not given) | HCT-15 colon | inactive
COc1ccc(Cl)cc1Nc1nc(C(F)(F)F)ccc1C(=O)N/N=C/c1ccc([N+](=O)[O-])cc1 | HCT-15 colon | active
N#Cc1nn(-c2cc(=O)[nH]c3ccc(Br)cc23)c(N)c1C#N | HCT-15 colon | inactive
CN(C)c1ccc(/C=N\NC(=O)c2ccc3nc(-c4ccc(Cl)cc4)[nH]c3c2)cc1 | HCT-15 colon | inactive
COc1ccccc1/C=C/C(=O)Nc1ccc(F)cc1 | HCT-15 colon | inactive
CCOC(=O)CNC1=C(Cl)C(=O)N(Cc2ccc(Cl)cc2)C1=O | HCT-15 colon | inactive
O=C(CCCCCCCC(=O)N1CCCCC1)N1CCCCC1 | HCT-15 colon | inactive
Cc1nc([P+](c2ccccc2)(c2ccccc2)c2ccccc2)c(N2CCCCC2)o1 | HCT-15 colon | inactive
CN(C)/C(N)=N/N=C(\c1ccccc1)c1ccccn1 | HCT-15 colon | inactive
CCN1C(=O)N(c2ccccc2)C2NC(=S)N(/N=C/C=C/c3ccccc3OC)C21 (stereo not given) | HCT-15 colon | active
COc1ccc(/C=N/NC(=O)Cn2c(-c3ccc(S(C)(=O)=O)cc3)nc3ccccc32)cc1 | HCT-15 colon | inactive
CS(=O)(=O)c1ccc(-c2nc3ccccc3n2CC(=O)N/N=C/c2ccccc2)cc1 | HCT-15 colon | inactive
N#C/C(=C\c1ccc(-c2cccc(Cl)c2)o1)C(=O)Nc1ncc(Cc2ccc(Cl)cc2)s1 | HCT-15 colon | inactive
O=C(Nc1cc(Cl)cc(Cl)c1)Oc1c(Cl)c(Cl)c(Cl)c(Cl)c1Cl | HCT-15 colon | inactive
CC(C)NS(=O)(=O)/N=C1\NC(=O)NC1=C(Cl)Cl | HCT-15 colon | inactive
CCN(CC)C(=O)C1=C(C)NC(=O)NC1c1ccc2c(c1)OCO2 (stereo not given) | HCT-15 colon | inactive
CCCCCc1ccc(S(=O)(=O)Nc2ccc3nc(N)oc3c2)cc1 | HCT-15 colon | inactive
COc1cc2c(c(OC)c1OC)C(=O)CC(c1cccc(C(=O)Nc3ccc(C#N)cc3)c1)O2 (stereo not given) | HCT-15 colon | inactive
Cc1cc2oc(/C=C/c3ccccc3)cc(=O)c2c(C)c1Cl | HCT-15 colon | inactive
